Biological target: T1, mIghmbp2hd-R3H (helicase core + R3H) (mouse, UniProt P40694 1-786)
T1 sequence: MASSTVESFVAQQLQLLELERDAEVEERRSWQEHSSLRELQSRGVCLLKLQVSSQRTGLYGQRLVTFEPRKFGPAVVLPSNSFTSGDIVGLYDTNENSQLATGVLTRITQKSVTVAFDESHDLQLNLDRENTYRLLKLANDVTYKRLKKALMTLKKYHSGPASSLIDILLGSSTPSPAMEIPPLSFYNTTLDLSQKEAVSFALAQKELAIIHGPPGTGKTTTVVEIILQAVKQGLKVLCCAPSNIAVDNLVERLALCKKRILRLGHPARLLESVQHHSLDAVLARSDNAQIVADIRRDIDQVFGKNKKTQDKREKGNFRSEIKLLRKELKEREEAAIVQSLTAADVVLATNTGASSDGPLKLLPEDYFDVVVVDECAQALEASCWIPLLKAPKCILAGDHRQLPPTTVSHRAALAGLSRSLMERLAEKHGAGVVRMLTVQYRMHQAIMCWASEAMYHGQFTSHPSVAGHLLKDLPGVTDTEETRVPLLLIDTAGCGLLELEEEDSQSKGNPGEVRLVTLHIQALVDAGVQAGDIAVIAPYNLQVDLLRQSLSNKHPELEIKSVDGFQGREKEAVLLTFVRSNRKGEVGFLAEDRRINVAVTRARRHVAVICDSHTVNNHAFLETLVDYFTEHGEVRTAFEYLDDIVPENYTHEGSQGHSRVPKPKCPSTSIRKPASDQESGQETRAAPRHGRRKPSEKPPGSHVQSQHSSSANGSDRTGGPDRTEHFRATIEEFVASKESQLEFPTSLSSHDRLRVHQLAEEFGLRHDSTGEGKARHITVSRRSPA
Experiment: fluorescence anisotropy
property-measured: pKd
Remember, pKd is on a log scale: it is -log10 of the molar concentration.

Give its pKd value. Item: UUUUUUUUUUUUUUU (ssRNA) [U15 ssRNA]
6.97
